Sourced from patent US11905338B2

assay: Dynamic light scattering and zeta potential of nanoparticles; assay type: physicochemical; details: CPP:siRNA R = 20, 5% glucose, intensity
Where no end group is shown, it is not given here.

Substance: LLRLLRWWWRLLRLL-NH2 [CPP2, LLRLLRWWWRLLRLL]
Mean size (nm) I (%): 80.0
//
Substance: RLLWRLWRLLWRLWRLLR (CPP1-6R)
Mean size (nm) I (%): 125.3
//
Substance: LLWRLWRLLWRLWRLL-NH2 [CPP1, LLWRLWRLLWRLWRLL]
Mean size (nm) I (%): 73.3
//
Substance: RLLRLLRWWWRLLRLLR (CPP2-6R)
Mean size (nm) I (%): 59.8
//
Substance: LLRLLRWWWWRLLRLL [CPP4]
Mean size (nm) I (%): 122.0
//
Substance: RLLWRLW-----LWRLLR (RLLWRLWLWRLLR; CPP1-4R)
Mean size (nm) I (%): 1012
